# credit: paper PMC4515944

Target: Collagenase type V from Clostridium histolyticum
Test: Collagenase inhibition assay
Assay type: biochemical
Details: incubation 37°C 10 min, reaction monitored 30 min; final concentration
MEASURE: IC50 (µg/mL)
Answers are plain numbers, in µg/mL.

// each listed compound needs a value for IC50
1. c1cnc2c(c1)ccc1cccnc12
2. COC1=C(NCC(=O)O)C[C@@](O)(CO)C/C1=N\[C@@H](CO)C(=O)O
3. COC1=C(NCC(=O)O)CC(O)(CO)CC1=N[C@H](C(=O)O)[C@@H](C)O (stereo partly shown)
4. COC1=C(NCC(=O)O)CC(O)(CO)CC1=N (stereo not shown)

Response:
[42.86, 34.42, 37.73, 38.82]

---

Biological target: Collagenase type V from Clostridium histolyticum
Experiment: Collagenase inhibition assay
Format: biochemical
Details: incubation 37°C 10 min, reaction monitored 30 min; mean ± SD (n=3)
Exercise: for every item that follows, state its recorded IC50.
One number for each entry, in µM.

# count of solved cases: 4
molecule=CC(C)C[C@H](NP(=O)(O)O[C@@H]1O[C@@H](C)[C@H](O)[C@@H](O)[C@H]1O)C(=O)N[C@@H](Cc1c[nH]c2ccccc12)C(=O)O target_under_test="Collagenase type V from Clostridium histolyticum" measure=IC50 numeric_value=18.8
molecule="COC1=C(NCC(=O)O)CC(O)(CO)CC1=N (centres unmarked)" target_under_test="Collagenase type V from Clostridium histolyticum" measure=IC50 numeric_value=159
molecule=COC1=C(NCC(=O)O)C[C@@](O)(CO)C/C1=N\[C@@H](CO)C(=O)O target_under_test="Collagenase type V from Clostridium histolyticum" measure=IC50 numeric_value=104
molecule="COC1=C(NCC(=O)O)CC(O)(CO)CC1=N[C@H](C(=O)O)[C@@H](C)O (some centres unmarked)" target_under_test="Collagenase type V from Clostridium histolyticum" measure=IC50 numeric_value=106

Here's the next entry for you.
For record `c1cnc2c(c1)ccc1cccnc12` the listed IC50 is 238
